Test system: influenza A virus (A/WSN/33 NanoLuc reporter virus) in A549 cells
Experiment: microbe, parasite or virus in culture
Assay type: cell-based
Settings: A549, 24 h, read-out: IC50 values of viral replication inhibition in a cell-based Luciferase Reporter Assay (LRA)
ATTRIBUTE_MEASURED: IC50 (nM)
Numeric only. Scale: nM

Look over these answered cases.
# input compound: CC(C)N1C[C@H](C2c3ccccc3CCc3ccccc32)n2c(-n3cnnc3)nc(=O)c(O)c2C1=O [Ia-46] ; wanted: its IC50
55

Here is the next compound: CC(C)N1C[C@H](C(c2ccccc2)c2ccccc2)n2c(c(O)c(=O)n(Cc3ccccc3)c2=O)C1=O [Example 1b-2]
4300

And the next one, CC(C)N1C[C@H](C(c2ccccc2)c2ccccc2)n2c(c(O)c(=O)n(C)c2=O)C1=O [Example 1b-1] ?
1660

# repeat for CC(C)Nc1nc(=O)c(O)c2n1[C@@H](C1c3ccccc3CCc3ccccc31)CN(C(C)C)C2=O [Ia-36]
103

Another: CC(=O)Nc1nc(=O)c(O)c2n1[C@@H](C(c1ccccc1)c1ccccc1)CN(C(C)C)C2=O [Example 1a-16]
23

Others:
# IC50 lookup, item CC(C)N1C[C@H](C(c2ccccc2)c2ccccc2)n2c(S)nc(=O)c(O)c2C1=O [Ia-28]
61

Same read-out for COc1nc(=O)c(O)c2n1[C@@H](C(c1ccccc1)c1ccccc1)CN([C@H](C)C(F)(F)F)C2=O [Ia-66] ?
26

Now consider COC(=O)Nc1nc(=O)c(O)c2n1[C@@H](C(c1ccccc1)c1ccccc1)CN(C(C)C)C2=O [Ia-56] and answer again.
200

Now this one: CCSc1nc(=O)c(O)c2n1[C@@H](C(c1ccccc1)c1ccccc1)CN(C(C)C)C2=O [Ia-24]
11900

Also check COc1nc(=O)c(O)c2n1[C@@H](C1c3ccccc3CCc3ccccc31)CN(C(C)C)C2=O [Example 1a-8]
6

Same question, CC(C)N1C[C@H](C2c3ccccc3CCc3ccccc32)n2c(NCC(F)(F)F)nc(=O)c(O)c2C1=O [Ia-34] this time
50

Same read-out for COc1nc(=O)c(O)c2n1[C@@H](C(c1ccccc1)c1ccccc1)CN(C(C)C)C2=O [Example 1a-4] ?
14

// same read-out, input: CSc1nc(=O)c(O)c2n1[C@@H](C1c3ccccc3CCc3ccccc31)CN(C(C)C)C2=O [Ia-30]
17

Let us now turn to CC(C)N1C[C@H](C2c3ccccc3CCc3ccccc32)n2c(O)nc(=O)c(O)c2C1=O [Example 1a-10]
98

What would you report for CC(C)N1C[C@H](C(c2ccccc2)c2ccccc2)n2c(O)nc(=O)c(O)c2C1=O [Example 1a-6] ?
218
